Here, each record is paired with measured fold less potent than the corresponding compound of the invention in the enzyme assay data.
test.system: JAK1 (Homo sapiens (Human), UniProt P23458)
Sequence (P23458 whole entry): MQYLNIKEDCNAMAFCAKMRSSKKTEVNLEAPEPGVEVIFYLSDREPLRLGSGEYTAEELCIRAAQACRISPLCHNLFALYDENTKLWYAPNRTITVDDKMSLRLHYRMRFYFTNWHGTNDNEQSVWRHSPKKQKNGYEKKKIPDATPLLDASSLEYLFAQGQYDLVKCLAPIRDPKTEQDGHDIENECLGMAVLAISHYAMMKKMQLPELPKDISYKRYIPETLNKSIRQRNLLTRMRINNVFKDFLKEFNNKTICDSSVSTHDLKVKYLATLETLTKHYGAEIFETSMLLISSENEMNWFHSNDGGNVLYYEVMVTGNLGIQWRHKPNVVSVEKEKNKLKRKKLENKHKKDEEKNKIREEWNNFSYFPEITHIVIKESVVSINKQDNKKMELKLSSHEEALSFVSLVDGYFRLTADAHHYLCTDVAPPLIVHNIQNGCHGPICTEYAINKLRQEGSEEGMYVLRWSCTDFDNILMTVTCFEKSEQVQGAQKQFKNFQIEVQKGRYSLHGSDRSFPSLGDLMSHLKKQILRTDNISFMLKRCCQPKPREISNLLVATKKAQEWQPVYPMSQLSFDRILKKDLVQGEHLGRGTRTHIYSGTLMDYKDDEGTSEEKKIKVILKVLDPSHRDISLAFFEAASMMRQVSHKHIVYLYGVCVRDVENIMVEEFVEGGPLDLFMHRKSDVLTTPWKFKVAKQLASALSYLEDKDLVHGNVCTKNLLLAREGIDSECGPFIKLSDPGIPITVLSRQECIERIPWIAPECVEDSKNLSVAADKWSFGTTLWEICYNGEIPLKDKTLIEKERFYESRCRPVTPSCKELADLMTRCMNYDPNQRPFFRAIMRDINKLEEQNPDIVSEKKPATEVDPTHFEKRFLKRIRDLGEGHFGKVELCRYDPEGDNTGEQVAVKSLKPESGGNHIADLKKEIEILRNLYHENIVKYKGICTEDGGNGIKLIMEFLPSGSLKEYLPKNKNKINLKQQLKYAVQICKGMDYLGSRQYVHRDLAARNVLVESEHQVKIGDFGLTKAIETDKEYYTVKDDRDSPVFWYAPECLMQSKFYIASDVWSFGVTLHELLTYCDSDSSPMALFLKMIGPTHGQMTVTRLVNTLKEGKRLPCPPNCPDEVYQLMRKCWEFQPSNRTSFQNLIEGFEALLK
method.notes: LanthaScreen JAK1 biochemical assay
conditions: versus Examples 1, 7, 13, 6
quantity.name: fold less potent than the corresponding compound of the invention in the enzyme assay (fold)

[[record]]
compound = "CCc1cc(O)c(F)cc1-c1ccc2c(-c3nc4c([nH]3)CCN(C3CC(C)C3)C4)n[nH]c2c1 (stereo not shown)"
measurement_unit = "fold"
reported_value = 2

[[record]]
compound = "CCc1cc(O)c(F)cc1-c1ccc2c(-c3nc4c([nH]3)CCN(CC3CCCOC3)C4)n[nH]c2c1 (stereo not shown)"
measurement_unit = "fold"
reported_value = 6

[[record]]
compound = "CCc1cc(O)c(F)cc1-c1ccc2c(-c3nc4c([nH]3)CCN(C3CCC(C)CC3)C4)n[nH]c2c1 (stereo not shown)"
measurement_unit = "fold"
reported_value = 2.5

[[record]]
compound = "CCc1cc(O)c(F)cc1-c1ccc2c(-c3nc4c([nH]3)CCN(CCC(C)C)C4)n[nH]c2c1"
measurement_unit = "fold"
reported_value = 3

